Provenance of the data: patent US20110165066A1

Biological target: T1, human IL-13 variant (R130Q) (human, UniProt P35225 35-146)
T1 construct: called R110Q in the assay descriptions (mature numbering); also called h IL-13v; hIL-13v
T1 sequence (P35225 35-146 limits assumed, stated change not applied): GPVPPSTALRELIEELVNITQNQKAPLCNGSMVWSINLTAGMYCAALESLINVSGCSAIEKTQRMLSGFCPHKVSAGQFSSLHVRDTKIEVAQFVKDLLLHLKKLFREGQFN
Assay: SPR (Biacore), mAb captured, IL-13 as analyte
assay-endpoint: kon (M⁻¹ s⁻¹)
Unit M⁻¹ s⁻¹ implied. Number only.

q: Looking for the measured kon of 25C8 (antibody, V domains shown) VH: QVQLQQPGAELVRPGASVQLSCKASGYTFTSSWIHWVNQRPGQGLEWIGMIHPSDSETRLNQKFKDKATLTVDKSSSTAYMQLSSPTSEDSAVYYCASTATDFDYWGQGTTLTVSS VL: DVVLTQTPLSLPVNIGDQASISCKSTKSLLNSDGFTYLDWYLQKPGQSPQLLIYLVSNRFSGAPDRFSGSGSGTDFTLKISRVEAEDLGVYYCFQHNYLPLTFGAGTNLELKR , can you help?
a: 134000
